- Tested on: human TLR7 (Homo sapiens)
- Construct: host or cells: HEK293 (HEK-Blue hTLR7)
- Method notes: HEK-Blue hTLR7 reporter cell assay (SEAP, NF-kB/AP-1) for stimulation of human TLR7
- Type: cell-based
- Assay setup: HEK-Blue hTLR7 cells, 24 h incubation, SEAP readout; read-out: TLR7_EC50
Property label: EC50 (nM)
Give the value, in units of nM, as a plain number.

> print(dat)
                                   compound  property.label  experimental.result
1  CCCCc1nc2c(N)nnc(Oc3ccccc3)c2n1Cc1ccc(OC)cc1            EC50                 3760

Quick note, EC50 for CCCCc1nc2c(N)nnc(OC(C)C)c2n1Cc1cccc(CN(C)C)c1 landed at 392

Quick note, EC50 for CCCCc1nc2c(N)nnc(CCC(C)C)c2n1C[C@H]1CC[C@H](CN)CC1 landed at 51.4

Quick note, EC50 for CCCCc1nc2c(N)nnc(OC(C)C)c2n1Cc1ccc(CNCCOCCOC)cc1 landed at 29

Quick note, EC50 for CCCCc1nc2c(N)nnc(OC(C)C)c2n1Cc1ccc(CNC(=O)CC)cc1 landed at 55

Quick note, EC50 for CCCCc1nc2c(N)nnc(OC3CCS(=O)(=O)C3)c2n1Cc1ccc(OC)cc1 (stereo not drawn) landed at 4770

* * *

- Tested on: human TLR7 (Homo sapiens)
- Construct: host or cells: HEK293 (HEK-Blue hTLR7)
- Sequence (Q9NYK1 27-1049): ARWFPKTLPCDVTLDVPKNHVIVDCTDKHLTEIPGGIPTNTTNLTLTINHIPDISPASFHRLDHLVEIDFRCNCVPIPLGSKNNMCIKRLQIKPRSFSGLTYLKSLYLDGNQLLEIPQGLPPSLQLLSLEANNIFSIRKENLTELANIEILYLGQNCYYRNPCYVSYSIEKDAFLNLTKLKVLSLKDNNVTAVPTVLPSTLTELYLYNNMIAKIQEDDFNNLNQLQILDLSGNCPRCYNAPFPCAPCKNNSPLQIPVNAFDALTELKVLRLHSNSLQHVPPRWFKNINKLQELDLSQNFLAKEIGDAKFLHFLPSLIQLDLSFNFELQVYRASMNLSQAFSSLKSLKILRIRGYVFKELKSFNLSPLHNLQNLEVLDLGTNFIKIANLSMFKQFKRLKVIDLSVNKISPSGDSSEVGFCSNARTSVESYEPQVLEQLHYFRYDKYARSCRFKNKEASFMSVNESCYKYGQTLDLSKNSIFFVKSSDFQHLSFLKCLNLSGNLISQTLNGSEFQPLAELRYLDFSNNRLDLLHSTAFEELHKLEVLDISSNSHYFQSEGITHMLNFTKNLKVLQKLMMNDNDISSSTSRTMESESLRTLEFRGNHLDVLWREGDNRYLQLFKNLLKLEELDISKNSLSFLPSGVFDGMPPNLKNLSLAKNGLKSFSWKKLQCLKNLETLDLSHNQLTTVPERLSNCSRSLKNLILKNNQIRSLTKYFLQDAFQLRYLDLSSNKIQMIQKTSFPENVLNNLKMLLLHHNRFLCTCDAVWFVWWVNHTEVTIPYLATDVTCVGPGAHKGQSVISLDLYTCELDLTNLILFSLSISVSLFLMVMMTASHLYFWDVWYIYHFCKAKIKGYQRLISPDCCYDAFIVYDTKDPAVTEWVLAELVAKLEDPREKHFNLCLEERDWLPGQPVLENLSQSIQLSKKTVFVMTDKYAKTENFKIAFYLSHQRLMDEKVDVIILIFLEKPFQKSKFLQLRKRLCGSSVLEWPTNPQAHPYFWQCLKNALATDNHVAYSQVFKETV
- Method notes: HEK-Blue hTLR7 reporter cell assay (SEAP, NF-kB/AP-1) for stimulation of human TLR7
- Assay type: cell-based
- Assay setup: HEK-Blue hTLR7 cells, 24 h incubation, SEAP readout; read-out: TLR7_EC50
Note to self: class labels come from recorded EC50, ranges listed here: lower range: < 0.2 µM; middle range: ≥ 0.2 µM and < 0.3 µM; upper range: ≥ 0.3 µM

Completed entries (count: 8):
> print(dat)
                                   compound  classification
1  CCCCc1nc2c(N)nnc(OC(C)C)c2n1Cc1ccc(CNCC(=O)OC(C)(C)C)cc1     lower range
2     CCCCc1nc2c(N)nnc(OC)c2n1Cc1ccc(OC)cc1    middle range
3  CCCCc1nc2c(N)nnc(-c3ccsc3)c2n1Cc1ccc(OC)cc1     upper range
4  CCCCOc1nnc(N)c2nc(CCCC)n(Cc3ccc(OC)cc3)c12     lower range
5  CCCCc1nc2c(N)nnc(OC(C)C)c2n1Cc1ccc(CN)cn1     lower range
6  CCCCc1nc2c(N)nnc(OC(C)C)c2n1CCCCCCNC1CS(=O)(=O)C1     lower range
7  CCCCc1nc2c(N)nnc(OC(C)C)c2n1Cc1ccc(CN(C(C)=O)C2CS(=O)(=O)C2)cc1     upper range
8  CCOCc1nc2c(N)nnc(OC(C)C)c2n1Cc1ccc(CN)cc1    middle range

Now consider a different compound.
q: Lab note: sort CCCCc1nc2c(N)nnc(OC(C)C)c2n1C[C@H]1CCC[C@H](N)C1 (racemic) into the matching EC50 band.
a: upper range
